Target: AMP-activated protein kinase, AMPK (Homo sapiens) (UniProt P54646+O43741+P54619+Q9UGJ0+Q9Y478+Q13131+Q9UGI9)
Assay: AMP-dependent Kinase enzyme assay. An in vitro enzyme assay that detects ADP turnover that is directly proportional to AMPK activity. This uses naive AMPK that is activated during the assay with MK-8722
Type: functional
Parameters: scale not given: direction of the effect not stated beside the values
Conditions: 30 µM
test.readout: Percent Effect (%)
// units = %; emit number, no label

# count of solved cases: 4
COCC(C)NC(=O)c1sccc1-n1cnnn1 (configuration not stated) :: 15.6
CSCC(C)(O)CNS(=O)(=O)c1ccc(F)cc1 (configuration not stated) :: -4.97
CC(C)[C@@H]1CN(c2ccc(C(F)(F)F)cn2)C[C@H]1NS(C)(=O)=O :: 3.23
NC(=O)CN(Cc1ncc(-c2ccc(Cl)cc2)o1)C1CCCC1 :: -5.3

Now examine the next entry.
Dear colleague, I am looking for the recorded Percent Effect of the following compound: "CN(C)C[C@@H]1CN(C(=O)c2cc(-c3ccccc3)n[nH]2)C[C@@H]1CO"
-6.79
